TARGET_UNDER_TEST: HLA-C*12:03
ASSAY_NOTES: IEDB peptide-MHC binding, purified MHC/direct/fluorescence; filed as Kd, often an IC50 or EC50 that approximates it; bounds were set here for any values at or beyond the usual limits of such assays
SETUP_CONDITIONS: source organism: Yersinia pestis Antiqua
READOUT_LABEL: Kd

Given the sequence FASSRMSTY , write its reported Kd.
≤ 1 nM

----------
TARGET_UNDER_TEST: HLA-A*02:01
ASSAY_NOTES: IEDB peptide-MHC binding, purified MHC/competitive/radioactivity; filed as Kd, often an IC50 or EC50 that approximates it; bounds were set here for any values at or beyond the usual limits of such assays
SETUP_CONDITIONS: source organism: Vaccinia virus WR
READOUT_LABEL: pKd
Units for pKd: none; it is -log10 of a concentration expressed in mol/L.

Fill in pKd for KVFSFWLLCK tested with HLA-A*02:01.
5.92

FYI, the data here is from the Immune Epitope Database (IEDB).
